So I've got a bunch of compounds here, and I need their IC50 values.
- tgt: human SPPL2a (Homo sapiens, UniProt Q8TCT8)
- Sequence (Q8TCT8 26-520): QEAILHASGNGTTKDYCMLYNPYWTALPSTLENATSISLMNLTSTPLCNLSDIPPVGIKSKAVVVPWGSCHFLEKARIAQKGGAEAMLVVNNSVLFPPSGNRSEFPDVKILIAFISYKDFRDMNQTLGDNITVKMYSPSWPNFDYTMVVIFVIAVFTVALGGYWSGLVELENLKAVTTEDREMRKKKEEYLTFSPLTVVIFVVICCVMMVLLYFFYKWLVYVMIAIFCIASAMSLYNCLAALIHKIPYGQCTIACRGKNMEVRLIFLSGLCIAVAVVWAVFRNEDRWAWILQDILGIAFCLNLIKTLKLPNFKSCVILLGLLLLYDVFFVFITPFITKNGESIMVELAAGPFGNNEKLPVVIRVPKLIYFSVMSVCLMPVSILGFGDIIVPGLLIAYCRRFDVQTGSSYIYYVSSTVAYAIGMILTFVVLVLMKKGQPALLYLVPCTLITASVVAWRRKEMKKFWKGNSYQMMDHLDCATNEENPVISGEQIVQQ
- method_description: Sppl2a TL (translocation) imaging assay in U-2 OS cells
- Format: cell-based
- Parameters: expressed in transfected cells
- condition_description: U-2 OS cells expressing human SPPL2a and EGFP-TNFα(aa1-76) NTF substrate; 24 h
Give a bare numeral; the unit nM is implied.

I have this compound here, "C[C@H](CNC(=O)c1sc(C2CC2)nc1Cl)C(=O)N[C@@H]1C(=O)N2CCCN2Cc2ccccc21" , and I need its recorded IC50. 63

Quick one: IC50 for "C[C@H](CC(=O)Nc1cn(-c2ccc(C(F)(F)F)nc2)nc1Cl)C(=O)N[C@@H]1C(=O)N2CCCN2Cc2ccccc21" ? 10

I am curious: what IC50 value has been reported for "Cc1cnoc1C(=O)NC[C@H](C(=O)N[C@@H]1C(=O)N2CCCN2C(=O)c2ccccc21)C(F)(F)F" ? 450

Give its IC50 value. Item: "CCc1cc(-c2cc(NC(=O)C[C@@H](C)C(=O)N[C@@H]3C(=O)N4CCCN4Cc4ccccc43)n(C)n2)on1" 10
